Where these numbers come from: patent US10526336B2

test_target: human orexin-2 receptor (Homo sapiens (Human), UniProt O43614)
Sequence (O43614 whole entry): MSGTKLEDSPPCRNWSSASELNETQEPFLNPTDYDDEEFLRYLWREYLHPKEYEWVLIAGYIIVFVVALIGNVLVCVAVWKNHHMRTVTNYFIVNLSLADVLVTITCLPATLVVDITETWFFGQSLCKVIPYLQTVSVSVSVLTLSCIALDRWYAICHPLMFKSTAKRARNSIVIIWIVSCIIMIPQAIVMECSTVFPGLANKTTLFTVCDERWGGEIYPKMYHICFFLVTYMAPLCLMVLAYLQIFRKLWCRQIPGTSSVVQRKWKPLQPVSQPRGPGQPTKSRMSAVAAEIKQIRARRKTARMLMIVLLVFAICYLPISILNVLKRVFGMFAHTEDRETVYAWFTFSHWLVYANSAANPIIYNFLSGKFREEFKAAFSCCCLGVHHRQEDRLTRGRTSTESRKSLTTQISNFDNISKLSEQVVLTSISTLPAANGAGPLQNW
assay_overview: FLIPR Ca2+ Flux Assay, orexin-2 receptor antagonism in CHO cells
setup_conditions: CHO cells expressing the human orexin-2 receptor; agonist 70 pM Ala-6,12 orexin-A; read-out: hOX2 FLIPR IC50
pIC50: −log10 of the molar value.
Quick list: pIC50 per entry.
measured_parameter: pIC50

> print(dat)
                         chemical.structure  result.value
1  CC(C)Oc1ncccc1C(=O)N1C[C@H](Oc2nccn3nccc23)CC[C@H]1C          7.31
2  C[C@@H]1CC[C@@H](Oc2nccn3nccc23)CN1C(=O)c1nccnc1-n1cccn1          7.50
3  C[C@@H]1CC[C@@H](Oc2nccn3cncc23)CN1C(=O)c1ccccc1-n1nccn1          7.85
